# System: SK-MEL-2 melanoma
# Measurement Protocol: NCI-60 one-dose screen, 48 h
# Conditions: 10 µM unless noted
This is part of a sample that, as a whole, favours compounds with a hit. Of some 83,000 tested, about 20% had one in any assay. Active and inactive are the calls of the source. How the source made its calls: active means growth percent below 10; inactive means the rest.
One label from this list, please: active, inactive

> print(dat)
                                   molecule  classification
1  Cc1ncc(C(=O)Nc2ccc(CN3CCN(C)CC3)c(C(F)(F)F)c2)cc1C#Cc1cnc(N)c2ccncc12          active
2  Cc1cc(N2CCN(C)CC2)nc(NCc2cc(Nc3ccnc4cc(Cl)ccc34)ccc2F)n1          active
3  COc1cc2nc(Nc3cccc(F)c3)nc(Nc3cc(C)[nH]n3)c2cc1OC          active
4  CC1O[C@@H]2C[C@@](O)([C@H]1O)n1c3ccccc3c3c4c(c5c6ccccc6n2c5c31)C(=O)NC4=O (some centres undefined)        inactive
5  COc1ccc(NC(=O)c2sc3nc4c(cc3c2N)CCCC4)cc1        inactive

Hey, what did the test say about `COc1ccc(Nc2ncccc2NC(=O)c2cn(Cc3cccc(Oc4ccccc4)c3)nn2)cc1OC` ?
inactive

Hey, what did the test say about `CC/C=C\C/C=C/C=C1/C(=O)C=C[C@@H]1C/C=C\CCCC(=O)OC` ?
inactive

Hey, what did the test say about `Oc1c(I)cc(-c2nc3ccccc3s2)cc1CN(Cc1ccccn1)Cc1ccccn1` ?
inactive

Hey, what did the test say about `Cc1ccc(Nc2nc(-c3ccc(F)cc3)c(C#N)c(=O)n2C)cc1` ?
inactive

Hey, what did the test say about `C=CCn1c(SCC(=O)Nc2ccc(C(=O)/C=C/c3cc(OC)c(OC)c(OC)c3)cc2)nnc1-c1cc(-c2ccc(OC)cc2)nc2ccccc12` ?
inactive

Hey, what did the test say about `CCCCCCCCCCCCCCCCCCOc1ccccc1CC(=O)OCC[N+]1(C)CCOCC1` ?
inactive

Hey, what did the test say about CC1(C)C2CC=C(/C=N/NC(=O)C3CCC(=O)N3)C1C2 (centres undefined) ?
inactive

Hey, what did the test say about `CCN(CC)c1ccc(/C=N\NC(=O)c2cccc(Nc3ccnc(C(F)(F)F)c3)c2)c(O)c1` ?
inactive

Hey, what did the test say about CC(C)CCC[C@@H](C)C1CCC2C3CCC4=C/C(=N/OCCN(C)C)CC[C@]4(C)C3CC[C@@]21C (some centres undefined) ?
inactive

###

# System: HT29 colon
# Measurement Protocol: NCI-60 one-dose screen, 48 h (100 = growth as untreated, 0 = no growth, -100 = all killed)
# Conditions: 10 µM unless noted
This is part of a sample that, as a whole, favours compounds with a hit. Of some 83,000 tested, about 20% had one in any assay.
Label class 1 when growth is at or above 10%; otherwise label class 0.

Check out these entries, answers already filled in.
Molecule	Classification
COc1ccc(C2CC(c3ccc(Nc4nc(Nc5ccc(F)cc5)nc(Nc5ccc(F)cc5)n4)cc3)=NN2C(C)=O)cc1 (stereo unspecified)	class 1
CCN1C(=O)N(CC)C2C1NN=c1s/c(=C3\C(=O)N(CCc4ccccc4)c4ccccc43)c(=O)n12 (stereo unspecified)	class 0
COc1ccc(C2CC(c3ccc4c(c3)OCO4)=Nc3c(N)ncnc3N2)cc1 (stereo unspecified)	class 1
CNCc1cccc2c1OCCOCCN(C)C(=O)CN(C)S(=O)(=O)c1ccc(cc1)-c1cnc(N)c(n1)C(=O)N2	class 1

Check the entry `Cc1ccc(C)c(-n2c(-c3ccc(Br)cc3)csc2=NC(=O)c2ccccc2F)c1` : does growth equal or exceed 10%?
class 1

Check the entry `CCSC1=CC(=O)c2ccccc2C1=O` : does growth equal or exceed 10%?
class 1

Check the entry COc1cc(N2C(=O)[C@H](c3ccccc3)C2c2ccc(SC)cc2)cc(OC)c1OC (stereo partly specified) : does growth equal or exceed 10%?
class 0

Numbers sourced from PubChem BioAssay (NCI).
